# credit: the supplement of paper PMC10724198

# Test system: Saccharomyces cerevisiae
# METHOD DESCRIPTION: protein stability index of tFT-peptide fusion (C-terminal peptide) (PSI (0-1 scale)); higher = more stable (slower turnover)
# TEST CONDITIONS: genetic background: doa10 deletion; temperature: 30 C
Decision: protein stability index >= 0.2 yields Fulfilled, all other cases yield Not fulfilled.

# SEQUENCE STRING, CAT
rows = [
    ("WGEAGRPAGRGA", "Fulfilled"),
]

Say whether `MCVCLLVRVVPS` shows protein stability index of 0.2 or more.
Not fulfilled

Say whether `PFFFSFILVLFW` shows protein stability index of 0.2 or more.
Fulfilled

Say whether `SCLLVVVSTSGN` shows protein stability index of 0.2 or more.
Fulfilled

* * *

Would you mind telling me the reported protein stability index of each entry?
# System: Saccharomyces cerevisiae
# METHOD DESCRIPTION: protein stability index of tFT-peptide fusion (C-terminal peptide) (PSI (0-1 scale)); higher = more stable (slower turnover)
# TEST CONDITIONS: genetic background: wild type; temperature: 30 C
Give bare numbers.

Sample answers from the record:
# SEQUENCE STRING, protein stability index
measured = [
    ("VEHRYHKSVSRL [YBR012C C-terminal 12 aa]", 0.759),
    ("GQLLSGSCLLNM [YBR226C C-terminal 12 aa]", 0.679),
    ("LVSYFLKVQMNL [YNL095C C-terminal 12 aa]", 0.491),
    ("FVLSISFRQEQT [YER172C-A C-terminal 12 aa]", 0.591),
    ("RDLLRDDKVALI [SLD5 C-terminal 12 aa]", 0.698),
]

Consider the record given below.
Short answer please: protein stability index, Saccharomyces cerevisiae, entry EKPPKEEPESDI [TIM54 C-terminal 12 aa]
0.666

* * *

Would you mind telling me the reported protein stability index of each entry?
# System: Saccharomyces cerevisiae
# METHOD DESCRIPTION: protein stability index of tFT-peptide fusion (C-terminal peptide) (PSI (0-1 scale)); higher = more stable (slower turnover)
# TEST CONDITIONS: genetic background: wild type; temperature: 30 C
Answers are plain numbers.

Sample answers from the record:
# SEQUENCE STRING, protein stability index
measured = [
    ("PSRRAPQSRPSQ", 0.733),
    ("YVFPYLLRAIPF", 0.601),
    ("RGLYQCFLLDIV", 0.472),
    ("KKKKKEKKQERK", 0.695),
    ("PLLYSDRPSIFL", 0.663),
    ("IKKKKRRKEQEK", 0.748),
    ("VCGVSWSRFPVL", 0.716),
    ("GPSHPPHLPPPV", 0.686),
]

For every listed record, write down its protein stability index.
1. TPPPPLVPPLPP
2. ELFHVGQLNSHE

[0.578, 0.738]

* * *

# Test system: Saccharomyces cerevisiae
# METHOD DESCRIPTION: protein stability index of tFT-peptide fusion (C-terminal peptide) (PSI (0-1 scale)); higher = more stable (slower turnover)
# TEST CONDITIONS: genetic background: wild type; temperature: 30 C
READOUT LABEL: protein stability index

# SEQUENCE STRING, protein stability index
rows = [
    ("TAYRGCSDRNAG", 0.603),
]

For every listed record, write down its protein stability index.
1. TPVVSVFFLPHY
2. VREQRLPLARRV
3. RNTYKKREKNKK

0.673
0.706
0.736

For every listed record, write down its protein stability index.
1. SHTLIRRGTHFP
2. HLSWFSPFFASG
3. GSDMRADGRIER
4. LRQKIIYWWLWL

[0.683, 0.772, 0.673, 0.313]

For every listed record, write down its protein stability index.
1. PYSPPAHLLSLL
2. SRCPLLNGIGFR
3. SFPYPCFPPPPF
4. SAPRPPPLPPSP
5. LQLLPPGLRQLP
6. PVLYPPPPFPPY
7. WGLGFRLVFWSV
8. YIVPAGGGLVSG

1: 0.878; 2: 0.647; 3: 0.78; 4: 0.68; 5: 0.679; 6: 0.747; 7: 0.529; 8: 0.642

* * *

# Tested on: Saccharomyces cerevisiae
# METHOD DESCRIPTION: protein stability index of tFT-peptide fusion (C-terminal peptide) (PSI (0-1 scale)); higher = more stable (slower turnover)
# TEST CONDITIONS: genetic background: wild type; temperature: 30 C
READOUT LABEL: protein stability index
Numbers only.

For every listed record, write down its protein stability index.
1. AGGGAAGPAGWV
2. PRASPPPLPPSP
3. VPAALAGADCSP

1: 0.673; 2: 0.717; 3: 0.763

* * *

# Tested on: Saccharomyces cerevisiae
# METHOD DESCRIPTION: protein stability index of tFT-peptide fusion (C-terminal peptide) (PSI (0-1 scale)); higher = more stable (slower turnover)
# TEST CONDITIONS: genetic background: cdc53-1; temperature: 37 C
Classes based on protein stability index: 0 = under 0.5, 1 = from 0.5 up to 0.6, 2 = 0.6 and over

# SEQUENCE STRING, CAT
rows = [
    ("AISLPVEVLAFS", 0),
    ("RRLYERNKNNKQ", 2),
    ("LFVPVFSFGFVC", 1),
    ("FKVTWGLFYGSV", 2),
]

Assign a bin to `LQCVYFVFFICF`
0

Assign a bin to `VRFSAVFVKVGV`
1

Assign a bin to `LFFWFMYLRRLI`
0

Assign a bin to `CGPLLVTLVLSM`
0

Assign a bin to `ARVSLSFVSVSA`
0

* * *

# Tested on: Saccharomyces cerevisiae
# METHOD DESCRIPTION: protein stability index of tFT-peptide fusion (C-terminal peptide) (PSI (0-1 scale)); higher = more stable (slower turnover)
# TEST CONDITIONS: genetic background: das1 deletion; temperature: 37 C
Decision: protein stability index >= 0.6 yields fulfilled, all other cases yield not fulfilled.

Previously resolved entries follow.
# SEQUENCE STRING, CAT
measured = [
    ("FLTLQSPIQYIV", "fulfilled"),
    ("LFSSFFVFRLLV", "not fulfilled"),
    ("FFLLLVSVLSGW", "not fulfilled"),
    ("FSSRVFLIVGIY", "not fulfilled"),
    ("CVPGPRWWYHSA", "fulfilled"),
    ("SRVHHLWAILVP", "not fulfilled"),
]

Say whether `RGFIYCSFVVRL` shows protein stability index of 0.6 or more.
not fulfilled

Say whether `ISPCLVRLWYRI` shows protein stability index of 0.6 or more.
fulfilled

* * *

# Tested on: Saccharomyces cerevisiae
# METHOD DESCRIPTION: protein stability index of tFT-peptide fusion in wild type (PSI (0-1 scale)); higher = more stable (slower turnover)
# TEST CONDITIONS: genetic background: wild type
READOUT LABEL: protein stability index
One number for each entry.

# SEQUENCE STRING, protein stability index
measured = [
    ("RVTRLTAIYFRI", 0.172),
]

For every listed record, write down its protein stability index.
1. ARWRVFLWRGAS
2. KKNKKGQKQKIN

[0.432, 0.141]

For every listed record, write down its protein stability index.
1. PSLAASFLRVVG
2. FSMRITFRYWVN
3. RSLRVPLPLYFR

1. 0.641
2. 0.0393
3. 0.113

For every listed record, write down its protein stability index.
1. LVVELSCVACIN
2. CLVSLPILLFFK
3. PSTAASFWRVVG

1. 0.0174
2. 0.0574
3. 0.135

* * *

Would you mind telling me the reported protein stability index of each entry?
# System: Saccharomyces cerevisiae
# METHOD DESCRIPTION: protein stability index of tFT-peptide fusion (C-terminal peptide) (PSI (0-1 scale)); higher = more stable (slower turnover)
# TEST CONDITIONS: genetic background: cdc34-1; temperature: 37 C
Numbers only.

# SEQUENCE STRING, protein stability index
records = [
    ("CFLLSYRWVFLC", 0.0855),
    ("PETSRFALNEWG", 0.709),
    ("KERNKISQRKLT", 0.65),
    ("IKWRCLFCVCVL", 0.477),
    ("ALEFLLLVCRRL", 0.589),
]

For every listed record, write down its protein stability index.
1. VVAALTPLITVA
2. SVLVSVVLFVRS
3. FSAVVCPTVFLC
4. FFIVGACAYVFA
5. RYRVRIVVFGLV

0.0655
0.114
0.51
0.223
0.407

For every listed record, write down its protein stability index.
1. TSFCIFFVRFVI
2. VTLVIYVLVQLT
3. LFLPFLPTLALL

1: 0.374; 2: 0.148; 3: 0.795

For every listed record, write down its protein stability index.
1. FSLFYYIHLSVA
2. SSGAVGLVIVVC
3. IKKKKRKKIKAN
4. LLSLLLDPLLCL
5. WLWYSPIAFTAL
6. VLVVTAFTFSCP

0.191
0.113
0.634
0.582
0.632
0.352
